tested on: RAW264.7; test: Anti-inflammatory activity in mouse RAW264.7 cells assessed as inhibition of LPS-induced NO production after 24 hrs by Griess reagent-based assay; assay type: functional, cell-based; details: RAW264.7, 24 h
observedProperty: pIC50
Value format note: pIC50 is -log10 of concentration (mol/L); just state the number.

compound=C/C=C1/[C@H](O[C@@H]2O[C@H](CO)[C@@H](O)[C@H](O)[C@H]2O)OC=C(C(=O)OC)[C@H]1CC(=O)OC[C@H]1O[C@@H](OCCc2ccccc2)[C@H](O)[C@@H](O)[C@@H]1O valuemeasured=4.18

Alright, here's another compound for you.
Query: Query (compound): C/C=C1/[C@H](O[C@@H]2O[C@H](CO)[C@@H](O)[C@H](O)[C@H]2O)OC=C(C(=O)OC)[C@H]1CC(=O)OC[C@H]1O[C@@H](OCCc2ccc(O)c(O)c2)[C@H](O)[C@@H](O)[C@@H]1O ; field requested: pIC50
Reply: 4.31

====

test system: RAW264.7; assay: Anti-inflammatory activity in mouse RAW264.7 cells assessed as inhibition of LPS-induced NO production after 24 hrs by Griess reagent-based assay; format: functional, cell-based; settings: RAW264.7, 24 h
observedProperty: pIC50
Note on units: pIC50 is unitless, being -log10 of a concentration expressed in mol/L.

Worked cases, answers included:
compound=C/C=C1/[C@H](O[C@@H]2O[C@H](CO)[C@@H](O)[C@H](O)[C@H]2O)OC=C(C(=O)OC)[C@H]1CC(=O)OC[C@H]1O[C@@H](OCCc2ccc(O)cc2)[C@H](O)[C@@H](O)[C@@H]1O valuemeasured=4.22
compound=C/C=C1/[C@H](O[C@@H]2O[C@H](CO)[C@@H](O)[C@H](O)[C@H]2O)OC=C(C(=O)OC)[C@H]1CC(=O)OC[C@H]1O[C@@H](Oc2ccc(O)cc2)[C@H](O)[C@@H](O)[C@@H]1O valuemeasured=4.23

Query: For RAW264.7, provide pIC50 of C/C=C1/[C@H](O[C@@H]2O[C@H](CO)[C@@H](O)[C@H](O)[C@H]2O)OC=C(C(=O)OC)[C@H]1CC(=O)O[C@H]1[C@H](OCCc2ccc(O)c(O)c2)O[C@H](CO)[C@@H](O)[C@@H]1O[C@@H]1O[C@@H](C)[C@H](O)[C@@H](O)[C@H]1O please.
Reply: 4.38

Query: Look up pIC50 with RAW264.7 for this molecule: C/C=C1/[C@H](O[C@@H]2O[C@H](CO)[C@@H](O)[C@H](O)[C@H]2O)OC=C(C(=O)OC)[C@H]1CC(=O)OC[C@H]1O[C@@H](OCc2ccccc2)[C@H](O)[C@@H](O)[C@@H]1O
Reply: 4.49
